From: ChEMBL document CHEMBL4513216

Would you kindly list cytotoxicity at 10 µM for each of these compounds?
# assay-remarks: Toxicity liver stage against HepG2, at 10uM
# Assay type: cell-based
# Design: test concentration 10 uM, cell line HepG2-A16-CD81EGFP
# experimental-parameters: human, HepG2-A16-CD81EGFP cells; read-out: INHIBITION
One number for each entry, in %.

Some solved cases for reference:
1) Cc1noc(C)c1CN(C)C(=O)NC1CCN(c2ncccn2)CC1 : -19.1
2) CCOCCCn1c(NC(=O)c2ccnc(C)n2)nc2ccccc21 : -21.1
3) CNC(=O)[C@@]12CCO[C@@H]1CCN(Cc1cccc(C)c1)C2 : -78.4
4) c1ccc(Cn2cc(CNC3CCc4ncnn4C3)cn2)cc1 (configuration not stated) : -1.61
5) N#Cc1csc(CNCCOc2ncccc2Cl)c1 : 8.01

Parameter requested: cytotoxicity at 10 µM. Apply to each item below.
1. COCCN1CCC2(COCc3cnc(-c4ccccc4)nc32)C1 (configuration not stated)
2. CS(=O)(=O)NCc1cccc(COC2CCCCC2)c1

Reply |
-111
3.12

====

# assay-remarks: Toxicity liver stage against HepG2, at 10uM
# Assay type: cell-based
# Design: test concentration 10 uM, cell line HepG2-A16-CD81EGFP
# experimental-parameters: human, HepG2-A16-CD81EGFP cells; read-out: INHIBITION
measurement-label: cytotoxicity at 10 µM (%)
Numbers only, in %.

1) CN1[C@@H](c2ccccc2)[C@@H](C(=O)NCc2ccccn2)C[C@@]1(C)C(=O)O : -3.8
2) O=C1CO[C@H]2CN(Cc3ccc(C(F)(F)F)cc3)C[C@H]2N1 : -4.63
3) Cn1cc(C(=O)NC(Cn2cccn2)C(C)(C)C)cn1 (stereo not given) : -6.36
4) Cc1cncc(C(=O)N2CCCC3(CCCN3S(C)(=O)=O)C2)c1 (stereo not given) : -152
5) CCOC(C)C(=O)NCCNS(C)(=O)=O (stereo not given) : -5.29
6) COC(=O)c1cc(CN2CCC(c3noc(C)n3)CC2)c(C)s1 : -7.12
7) Cc1ccc(-c2ccnc3cc(CC(=O)N4CCN(C)CC4)nn23)cc1 : -1.72
8) CC(C)CCN1CCN(C(=O)c2cnccn2)CC1 : 0.365
9) Cc1nccn1-c1ccc(C(=O)NCC(F)(F)F)nn1 : -2.35
10) CCn1cnnc1CNC(=O)c1ccc(Cl)cc1F : -0.457

Parameter requested: cytotoxicity at 10 µM. Apply to each item below.
1. COc1cccc(CN2CCN(c3cccc(C(C)C)n3)CC2)c1F
2. O=C(c1ccccn1)N1C[C@H]2CC[C@@H](C1)N(C(=O)CCc1cccs1)C2
3. Cc1nn(C)c2cnn(Cc3ccc(C(=O)NC4CC4)cc3)c12

Reply |
1. 4.25
2. -9
3. 6.42

Parameter requested: cytotoxicity at 10 µM. Apply to each item below.
1. CC(C)n1cnnc1Cn1c(=O)ccc2ccccc21
2. CC(C)NC(=O)N1CCN2C(=O)OC[C@H]2C1
3. O=C1OCCN1CCSc1nnnn1C1CCOCC1

Reply |
1. 5.62
2. 4.62
3. -48.4

Parameter requested: cytotoxicity at 10 µM. Apply to each item below.
1. O=C1CCC(C(=O)NCc2nncn2-c2ccccc2)CN1 (stereo not given)
2. CCCc1noc(CNc2cc(C[S+](C)[O-])ccc2Cl)n1 (stereo not given)

Reply |
-12.7
-5.18

Parameter requested: cytotoxicity at 10 µM. Apply to each item below.
1. NC(=O)c1csc(N2C[C@@H](CN3CCOCC3)[C@@H](CO)C2)n1
2. CCCn1cnnc1CNC(=O)CC1C(=O)NCCN1C(C)C (stereo not given)

Reply |
1. 2.97
2. 0.445

Parameter requested: cytotoxicity at 10 µM. Apply to each item below.
1. CN(CCS(=O)(=O)c1cc(Cl)ccc1Cl)CC(N)=O
2. CN(C)C(=O)C1CCCN1CCCNC(=O)Cc1ccccc1F (stereo not given)

Reply |
1: 4.65; 2: 0.646

Parameter requested: cytotoxicity at 10 µM. Apply to each item below.
1. CC1CCN(C)c2ccccc2N1C(=O)c1ccnc(-n2cncn2)c1 (stereo not given)
2. Cn1ncc(C(=O)N2CCN(CCS(C)(=O)=O)CC2)c1Cl
3. c1cncc(CN2CCc3c(nnn3CC3CC3)C2COCC2CC2)c1 (stereo not given)
4. CS(=O)(=O)NC(=O)c1cc(Cl)c2c(c1)OCCCO2
5. CCN(CC)C(=O)CCNc1cncc(-n2nc(C)cc2C)n1

Reply |
[2.37, 4.33, 3.88, -4.94, 2.41]

Parameter requested: cytotoxicity at 10 µM. Apply to each item below.
1. CC(=O)N1CCC(C(=O)Nc2nc(C3CC3)cs2)CC1
2. O=C(NCCNc1ncccn1)N1CCCC1c1ccncc1 (stereo not given)
3. CCn1nccc1CNC(=O)C1CCC1
4. CC(C)(CNC1CCCN(Cc2ccccc2F)C1)CN1CCOCC1 (stereo not given)
5. CN(C)Cc1ccc(C2CCCCN2C(=O)c2cc(C3CC3)n[nH]2)cc1 (stereo not given)
6. CC(C)c1nccc(CN2CCCC(O)(CN3CCCC3)C2)n1 (stereo not given)
7. c1cc(CNCc2ccc3c(c2)CCO3)cc(N2CCOCC2)n1
8. CCN1CCN(C(=O)c2cn(Cc3ccccc3)c3ncccc23)CC1

Reply |
-3.28
-4.65
-2.17
6.21
-9.09
-0.413
11.1
-1.6

Parameter requested: cytotoxicity at 10 µM. Apply to each item below.
1. COCCN1CCCCC12CC(=O)N(c1ccccc1OC)C2 (stereo not given)
2. CC(Cn1ccnc1)NC(=O)C1(c2ccc(F)cc2)CCCC1 (stereo not given)
3. COc1cccc(C2(CNC(C)c3nnc(C)o3)CCCC2)c1 (stereo not given)
4. CCSc1ncc(-c2cc(C3CCC3)nc(N)c2C#N)cn1

Reply |
-92.6
-9.98
-1.64
6.67

Ask | Value lookup for cytotoxicity at 10 µM; key = CCS(=O)(=O)NCCCNC1CSCCc2ccccc21 (stereo not given)
Reply | -3.66
